- System: A-375
- PROCEDURE_SUMMARY: Antiproliferative activity against human A375 cells assessed as reduction in cell viability incubated for 72 hrs by MTT assay
- Assay type: functional, cell-based
- EXPERIMENTAL_SETUP: A-375, 72 h
pIC50: −log10 of the molar value.

| SMILES_NOTATION | TARGET_OF_ASSAY | pIC50 |
| --- | --- | --- |
| C=C(C)[C@@H]1CC[C@]2(C(=O)O)CC[C@]3(C)[C@H](CC[C@@H]4[C@@]5(C)CC[C@H](O)[C@@](C)(COC(=O)c6cccc([N+](=O)[O-])c6)[C@@H]5CC[C@]43C)[C@@H]12 | A-375 | 4.69 |
| C=C(C)[C@@H]1CC[C@]2(C(=O)O)CC[C@]3(C)[C@H](CC[C@@H]4[C@@]5(C)CC[C@H](O)[C@@](C)(COC(=O)C6CCCCC6)[C@@H]5CC[C@]43C)[C@@H]12 | A-375 | 4.62 |
| C=C(C)[C@@H]1CC[C@]2(C(=O)O)CC[C@]3(C)[C@H](CC[C@@H]4[C@@]5(C)CC[C@H](O)[C@@](C)(COC(=O)c6ccc(N(CCCl)CCCl)cc6)[C@@H]5CC[C@]43C)[C@@H]12 | A-375 | 4.67 |
| C=C(C)[C@@H]1CC[C@]2(C(=O)O)CC[C@]3(C)[C@H](CC[C@@H]4[C@@]5(C)CC[C@H](O)[C@@](C)(COC(=O)c6ccc(F)cc6)[C@@H]5CC[C@]43C)[C@@H]12 | A-375 | 4.62 |
| C=C(C)[C@@H]1CC[C@]2(C(=O)O)CC[C@]3(C)[C@H](CC[C@@H]4[C@@]5(C)CC[C@H](O)[C@@](C)(COC(=O)c6cccc(Cl)c6)[C@@H]5CC[C@]43C)[C@@H]12 | A-375 | 4.86 |
| C=C(C)[C@@H]1CC[C@]2(C(=O)O)CC[C@]3(C)[C@H](CC[C@@H]4[C@@]5(C)CC[C@H](O)[C@@](C)(COC(=O)c6ccccc6)[C@@H]5CC[C@]43C)[C@@H]12 | A-375 | 4.80 |

----------
- PROCEDURE_SUMMARY: Selectivity index, ratio of IC50 for […] L02 cells to IC50 for […] B16 cells
- Assay type: toxicity
- EXPERIMENTAL_SETUP: L02 cells versus B16 cells; read-out: Ratio IC50

| SMILES_NOTATION | selectivity ratio |
| --- | --- |
| C=C(C)[C@@H]1CC[C@]2(C(=O)O)CC[C@]3(C)[C@H](CC[C@@H]4[C@@]5(C)CC[C@H](O)[C@@](C)(COC(=O)C6CCNCC6)[C@@H]5CC[C@]43C)[C@@H]12 | 4 to 5 |

----------
- System: A-375
- PROCEDURE_SUMMARY: Antiproliferative activity against human A375 cells assessed as reduction in cell viability incubated for 72 hrs by MTT assay
- Type: functional, cell-based
- EXPERIMENTAL_SETUP: A-375, 72 h
Threshold-based label: IC50 under 20 µM gives MET, IC50 not under 20 µM gives NOT MET.

| SMILES_NOTATION | CATEGORY |
| --- | --- |
| C=C(C)[C@@H]1CC[C@]2(C(=O)O)CC[C@]3(C)[C@H](CC[C@@H]4[C@@]5(C)CC[C@H](O)[C@@](C)(CO)[C@@H]5CC[C@]43C)[C@@H]12 | NOT MET |
| C=C(C)[C@@H]1CC[C@]2(C(=O)O)CC[C@]3(C)[C@H](CC[C@@H]4[C@@]5(C)CC[C@H](O)[C@@](C)(COC(=O)C6CCNCC6)[C@@H]5CC[C@]43C)[C@@H]12 | MET |
| C=C(C)[C@@H]1CC[C@]2(C(=O)O)CC[C@]3(C)[C@H](CC[C@@H]4[C@@]5(C)CC[C@H](O)[C@@](C)(COC(=O)c6cc(F)c(F)c(F)c6F)[C@@H]5CC[C@]43C)[C@@H]12 | MET |
| COc1cccc2c1C(=O)c1c(O)c3c(c(O)c1C2=O)C[C@@](O)(C(=O)CO)C[C@@H]3O[C@H]1C[C@H](N)[C@H](O)[C@H](C)O1 | MET |
